# System: MDA-MB-435 melanoma
# MEASUREMENT DESCRIPTION: NCI-60 one-dose screen, 48 h
# APPLIED CONDITIONS: 10 µM unless noted
Compounds without any hit were thinned out: in the full panel of roughly 83,000, 20% have a hit. Calls of active or inactive are those of the source. The calls were made as follows: active = growth percent below 10; inactive = the rest.
Write down the outcome that applies. Available outcomes: Yes (active), No (inactive)

Problem: GET /call?item= `C/C(=C(\c1ccc(O)cc1)c1ccc(OCCN2CCCCCC2)cc1)c1ccc(Cl)cc1` returns the recorded outcome of this test.
Solution: Yes

----------
# Tested on: HCC-2998 colon
# MEASUREMENT DESCRIPTION: NCI-60 one-dose screen, 48 h (100 = growth as untreated, 0 = no growth, -100 = all killed)
# APPLIED CONDITIONS: 10 µM unless noted
Compounds without any hit were thinned out: in the full panel of roughly 83,000, 20% have a hit.
This section presents molecules with their documented growth values.
Kindly provide the numeric value in % only, without the unit symbol.

Below, 5 molecules whose answers are already recorded.
Entry `COc1cc2c3c(cc4c5c(ccc4c3c1OC)OCO5)N(CCN(C)C)C2=O` — recorded growth = -45.3

Entry `CC1=C(C)C(=O)C(Nc2cccc(C(=O)OC(C)(C)C)c2)=CC1=O` — recorded growth = 103

Entry `COc1cccc(N2CCN(C3=C(Cl)C(=O)c4ncccc4C3=O)CC2)c1` — recorded growth = 106

Entry `Brc1ccc(-c2cc(-c3ccc4c(c3)OCCO4)n[nH]2)s1` — recorded growth = 42.1

Entry `N#C/C(=C\c1ccc(-c2ccc(Cl)cc2)o1)C(=O)Nc1ncc(Cc2ccc(Br)cc2)s1` — recorded growth = 62.4

New cases:
Entry `Cc1ccc(S(=O)(=O)c2nc(-c3ccc(F)cc3)oc2S(C)(=O)=O)cc1` — recorded growth = 102

Entry `CCCN1C=C/C(=C\C(=O)n2ccc3ccccc32)c2ccccc21` — recorded growth = 104

Entry `O=S(=O)(NCCCNc1nccc(-c2[nH]c(-c3ccccc3)nc2-c2ccc(F)c(O)c2)n1)c1ccc(C(F)(F)F)cc1` — recorded growth = 97.8

Entry C/C(CC1(O)C(=O)Nc2ccccc21)=N\O (stereo not given) — recorded growth = 111

Entry `Brc1ccc2[nH]cc(-c3nn4cc(-c5nccs5)nc4s3)c2c1` — recorded growth = 36.7

Entry `CS(=O)(=O)c1nccc(-c2c(-c3cccc(OCc4ccc(Cl)c(C(F)(F)F)c4)c3)nc3sccn23)n1` — recorded growth = -50.1

----------
# Test system: UO-31 renal
# MEASUREMENT DESCRIPTION: NCI-60 one-dose screen, 48 h (100 = growth as untreated, 0 = no growth, -100 = all killed)
# APPLIED CONDITIONS: 10 µM unless noted
Compounds without any hit were thinned out: in the full panel of roughly 83,000, 20% have a hit. Activity calls are given as the source filed them. The calls were made as follows: active = growth percent below 10; inactive = the rest.
This section presents molecules with their documented growth values.

Below, 4 molecules whose answers are already recorded.
Fill in: UO-31 renal growth for `C#CCOc1cccc(-c2nc(N)nc(Nc3ccccc3SSc3ccccc3Nc3nc(N)nc(-c4cccc(OCC#C)c4)n3)n2)c1` = -78.6% (active)

Fill in: UO-31 renal growth for `N#Cc1c(-c2cccs2)c(C#N)c(=O)n(Cc2nc3ccccc3[nH]2)c1N` = 60% (inactive)

Fill in: UO-31 renal growth for `COc1ccc([C@@H]2C(=O)N(c3cc(OC)c(OC)c(OC)c3)[C@H]2c2ccc(OC)c(O)c2)cc1` = 25.4% (inactive)

Fill in: UO-31 renal growth for `CC(C)[C@H]1c2[nH]c3ccccc3c2C[C@H]2C(=O)N(CCCCCCC(=O)NO)CC(=O)N12` = 83.2% (inactive)

Now examine the next entry.
Fill in: UO-31 renal growth for `COc1cc(C(=O)c2cc(C(C)=O)c3cccc(C)n23)cc(OC)c1OC` = 45.2% (inactive)

----------
# Test system: KM12 colon
# MEASUREMENT DESCRIPTION: NCI-60 one-dose screen, 48 h
# APPLIED CONDITIONS: 10 µM unless noted
# Procedure: Growth inhibition of the KM12 human tumor cell line is measured as a screen for anti-cancer activity. Cells are grown in 96 well plates and exposed to the test compound for 48 hours. Compounds are tested at a single concentration, which is 10^-5 M for most compounds. The reported endpoint is percent growth (GI% or GIPRCNT), where numbers from 0 - 100% represent growth inhibition, and numbers from -100% - 0 represent cell death. For example, a value of 40 represents 60% growth inhibition. […]
The panel holds about 83,000 compounds, 20% with a hit somewhere; the sample as a whole holds those more often. Active and inactive are the calls of the source. How the source made its calls: active means growth percent below 10; inactive means the rest.
Write down the outcome that applies. Available outcomes: active, inactive

Problem: GET /call?item= `O=C(Nc1cccc(Cl)c1)Nc1nc2cc([N+](=O)[O-])ccc2o1` returns the recorded outcome of this test.
Solution: inactive

New cases:
Problem: GET /call?item= `COc1cc2cc(Oc3ccc(NC(=O)Nc4ccc(F)c(C(F)(F)F)c4)cc3)c(C)nc2cc1OCCN(C)C` returns the recorded outcome of this test.
Solution: inactive

Problem: GET /call?item= `CCOC(=O)c1ccc(NC2=CC(=O)C(C)=C(C)C2=O)cc1` returns the recorded outcome of this test.
Solution: inactive

Problem: GET /call?item= `COc1ccc2c(c1)c(-c1nc(N)nnc1-c1c[nH]c3ccccc13)cn2C` returns the recorded outcome of this test.
Solution: inactive

Problem: GET /call?item= `CNCCN(C)c1ccc(Nc2cc(NC3CC3)n3ncc(C#N)c3n2)cc1NC(C)=O` returns the recorded outcome of this test.
Solution: active

----------
# Test system: M14 melanoma
# MEASUREMENT DESCRIPTION: NCI-60 one-dose screen, 48 h (100 = growth as untreated, 0 = no growth, -100 = all killed)
# APPLIED CONDITIONS: 10 µM unless noted
This is part of a sample that, as a whole, favours compounds with a hit. Of some 83,000 tested, about 20% had one in any assay.
This section presents compounds with their documented growth values.
Kindly provide the numeric value in % only, without the unit symbol.

Below, 2 compounds whose answers are already recorded.
Fill in: M14 melanoma growth for `CCCCc1nc2c(N)nc3ccccc3c2n1Cc1ccc(OC)cc1` = 67.3

Fill in: M14 melanoma growth for `COc1ccc(/C=N/N=C(/c2ccccc2)c2ccc3nc(-c4ccc(Cl)cc4)[nH]c3c2)cc1` = 75.3

New cases:
Fill in: M14 melanoma growth for `CC[C@H](CC[C@@H](C)[C@H]1CC[C@H]2[C@@H]3CC(=O)C4=CC(=O)/C(=C/c5ccc([N+](=O)[O-])cc5)C[C@]4(C)[C@H]3CC[C@]12C)C(C)C` = 89.7

Fill in: M14 melanoma growth for `O=C(/C=C/c1cccc(C(F)(F)F)c1)Nc1cccc(C(F)(F)F)c1` = 56.8

----------
# Test system: A549/ATCC NSCLC
# MEASUREMENT DESCRIPTION: NCI-60 one-dose screen, 48 h (100 = growth as untreated, 0 = no growth, -100 = all killed)
# APPLIED CONDITIONS: 10 µM unless noted
This is part of a sample that, as a whole, favours compounds with a hit. Of some 83,000 tested, about 20% had one in any assay.
Rule: growth below 70% gives satisfied, anything at or above gives not satisfied.

Problem: In the record for CC(Nc1c(C#N)cnc2ccc(-c3cncc(-c4n[nH]c(=O)o4)c3)cc12)c1ccccc1 (stereo not drawn) , is growth less than 70%?
Solution: satisfied

Problem: In the record for `CC(C)(C)Nc1nc2c(OCCc3ccccc3)cccn2c1-c1cccc(Oc2ccccc2)c1` , is growth less than 70%?
Solution: satisfied

Problem: In the record for `Cc1ccc(C(=O)CSc2nc3ccccc3c(=O)n2C)cc1` , is growth less than 70%?
Solution: not satisfied

Problem: In the record for `CN(C)CCCOc1ccc(C(=C(c2ccccc2)C2CCCC2)c2ccc(OCCCN(C)C)cc2)cc1` , is growth less than 70%?
Solution: satisfied

----------
# Test system: MDA-MB-435 melanoma
# MEASUREMENT DESCRIPTION: NCI-60 one-dose screen, 48 h (100 = growth as untreated, 0 = no growth, -100 = all killed)
# APPLIED CONDITIONS: 10 µM unless noted
This is part of a sample that, as a whole, favours compounds with a hit. Of some 83,000 tested, about 20% had one in any assay.
EXPERIMENTAL READOUT: growth (%)
Kindly provide the numeric value in % only, without the unit symbol.

Below, 8 molecules whose answers are already recorded.
Entry `CN1CCN(c2ccc(Nc3nc(NCCNS(=O)(=O)c4ccc(Cl)cc4)c4sccc4n3)cc2)CC1` — recorded growth = 95.4

Entry `O=C(/C=C/c1csc(Br)n1)NO` — recorded growth = 5.36

Entry `O=C1Nc2ccccc2/C1=C/c1ccc(OCC(=O)c2ccccc2)cc1` — recorded growth = 102

Entry `CCOC(=O)c1cccc(NC2=C(Cl)C(=O)C(C)=C(C)C2=O)c1` — recorded growth = 104

Entry `CC(C)NC(=O)c1cc(-c2ccc(NC(=O)Nc3ccc(F)cc3)cc2)nc2cccnc12` — recorded growth = 98.7

Entry `Cn1c(SCC(=O)c2ccc(Br)cc2)nc2ccccc2c1=O` — recorded growth = 103

Entry `CN1CCN(c2ccc(Nc3nc(NCCCNS(=O)(=O)c4ccccc4)c4sccc4n3)cc2)CC1` — recorded growth = 50.6

Entry `CCCCOc1ccc(S(=O)(=O)N2CCN(c3nc(C)cc(N4CCOCC4)n3)CC2)cc1` — recorded growth = 6.06

New cases:
Entry `O=C1[C@H]2Cc3c([nH]c4ccccc34)[C@H](c3ccc(Cl)cc3)N2C(=O)CN1C1CCN(CC2CCCCC2)CC1` — recorded growth = 62.3

Entry `O=C(O)c1ccc(-n2c(=O)n(-c3cccc(C(F)(F)F)c3)c(=O)c3cc(-c4ccc(F)cc4F)ccc32)cc1` — recorded growth = 5.93
